EXPERIMENTAL_TARGET: T1, Cyno BCMA APP-Avi (cynomolgus, biotinylated (site not stated))
T1 construct: It was used as soluble biotinylated antigen; also called biotinylated cyno BCMA
T1 sequence (chain, as listed by the source limits assumed): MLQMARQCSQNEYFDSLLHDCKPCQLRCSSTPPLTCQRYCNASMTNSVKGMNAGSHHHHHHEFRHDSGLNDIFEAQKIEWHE
TEST_SUMMARY: flow cytometry of single yeast clone displaying the scFv, labelled with 20 nM biotinylated cyno BCMA, streptavidin/neutravidin-DyLight 633 detection
Procedure: For the fourth round of screening, yeast from the third round output were pelleted, washed, and resuspended in 200 mL SD-ura broth with 1% raffinose, 2% galactose, and incubated for 22 hours at 20° C. to induce expression. […] Each sample plate was used to create three test plates for flow cytometric analysis. […] The test plates were analyzed on a Cytoflex flow cytometer (Beckman Coulter, Brea, Calif.)
MEASUREMENT_KIND: MFI (MFI)
Reply with just the number (in MFI).

Asked: Note down MFI recorded for H2/L2-18 scFv (scFv) scFv: QAQLQGSGGGVVQPGRSLRLSCAASGFTFSSYGMHWVRQAPGKGLEWVAVISYKGSHKYYADSVKGRFTISRDNSKNTLYLQMNSLRAEDTAVYYCGGSGYALHDDYYGLDVWGQGTLVTVSSSGGGGSGGGGSGGGGSGGGGSQSALTQPASVSGSPGQSITISCTGTSSDVGGYNYVSWYQQHPGKAPKLMIYDVSNRPWGVSNRFSGSKFGNTASLTISGLQAEDEADYYCSSYTSSSTLYVFGSGTKVTVL
Given back: 19900

Asked: // fetch MFI given entry H2/L2-83 scFv (scFv) scFv: QAQLQGSGGGVVQPGRSLRLSCAASGFTFSSYGMHWVRQAPGKGLEWVAVISYKGSNKYYADSVKGRFTISRDNSKNTLYLQMNSLRAEDTAVYYCGGSGYALHDDYYGLDVWGQGTLVTVSSSGGGGSGGGGSGGGGSGGGGSQSALTQPASVSGSPGQSITISCTGTSSDVGGYNYVSWYQQHPGKAPKLMIYEVSNRLRGVSNRFSGSKFGNTASLTISGLQAEDEADYYCSSYTSSSTLYVFGSGTKVTVL
Given back: 10700

Asked: Identify the reported MFI for the following entry. H2/L2-36 scFv (scFv) scFv: QAQLQSSGGGVVQPGRSLRLSCAASGFTFSSYGMHWVRQAPGKGLEWVAVISYKGSNKYYADSVKGRFTISRDNSKNTLYLQMNSLRAEDTAVYYCGGSGYALHDDYYGLDVWGQGTLVTVSSSGGGGSGGGGSGGGGSGGGGSQSALTQPASVSGSPGQSITISCTGTSSDVGGYNYVSWYQQHPGKAPKLMIYEVSNRLRGVSNRFSGSKFGNTASLTISGLQAEDEADYYCSSYTSSSTLYVFGSGTKVTVL
Given back: 6430

Data origin: patent US20190367628A1
